- targetOrTestSystem: Proteasome subunit beta (Trypanosoma cruzi) (UniProt O96673)
- Sequence (O96673 as listed by the source): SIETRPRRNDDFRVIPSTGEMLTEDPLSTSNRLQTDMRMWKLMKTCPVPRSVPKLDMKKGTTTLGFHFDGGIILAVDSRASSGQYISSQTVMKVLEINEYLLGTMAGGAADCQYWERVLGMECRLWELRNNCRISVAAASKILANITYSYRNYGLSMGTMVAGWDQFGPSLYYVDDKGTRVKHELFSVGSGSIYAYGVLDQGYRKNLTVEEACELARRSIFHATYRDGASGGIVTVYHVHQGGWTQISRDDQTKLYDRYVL
- procedureSummary: Trypanosoma cruzi proteasome chymotrypsin-like activity (TcProtChymo) assay. Note: in the data most compounds retested in dose-response had high values.
- Type: functional
- Parameters: scale not given: direction of the effect not stated beside the values
- condition: 9.37 µM
readout: Percent Effect (%)
Write the number in % without appending the unit.

QUERY: Return reported Percent Effect; argument: CN(Cc1nccn1CC(F)(F)F)C(=O)c1ccc(F)cc1F
RESULT: 12.8

QUERY: And for COC1CCCN(C(=O)Nc2nc(C)n(C)n2)C1 (centres undefined) ?
RESULT: 11.2

QUERY: And for COC(=O)CN(C)C1CCc2ccccc21 (centres undefined) ?
RESULT: 18.4

QUERY: And for Clc1snnc1CN1CCOC(CNc2cccnn2)C1 (centres undefined) ?
RESULT: 1.18

QUERY: And for Cc1ccc(C)c(CNC(=O)NC(C)(C(=O)O)c2ccco2)c1 (centres undefined) ?
RESULT: 5.33

QUERY: And for O=C1NCc2ccc(NC(=O)C3CCCN3c3nccs3)cc21 (centres undefined) ?
RESULT: 1.96

QUERY: And for Cc1cc2c(=O)n3c(nc2s1)CCN(C(=O)c1scnc1C)CC3 ?
RESULT: 7.49

====

- targetOrTestSystem: Ubiquitin-activating enzyme e1, putative (Leishmania donovani (strain BPK282A1)) (UniProt E9BSI1)
- Sequence (whole entry): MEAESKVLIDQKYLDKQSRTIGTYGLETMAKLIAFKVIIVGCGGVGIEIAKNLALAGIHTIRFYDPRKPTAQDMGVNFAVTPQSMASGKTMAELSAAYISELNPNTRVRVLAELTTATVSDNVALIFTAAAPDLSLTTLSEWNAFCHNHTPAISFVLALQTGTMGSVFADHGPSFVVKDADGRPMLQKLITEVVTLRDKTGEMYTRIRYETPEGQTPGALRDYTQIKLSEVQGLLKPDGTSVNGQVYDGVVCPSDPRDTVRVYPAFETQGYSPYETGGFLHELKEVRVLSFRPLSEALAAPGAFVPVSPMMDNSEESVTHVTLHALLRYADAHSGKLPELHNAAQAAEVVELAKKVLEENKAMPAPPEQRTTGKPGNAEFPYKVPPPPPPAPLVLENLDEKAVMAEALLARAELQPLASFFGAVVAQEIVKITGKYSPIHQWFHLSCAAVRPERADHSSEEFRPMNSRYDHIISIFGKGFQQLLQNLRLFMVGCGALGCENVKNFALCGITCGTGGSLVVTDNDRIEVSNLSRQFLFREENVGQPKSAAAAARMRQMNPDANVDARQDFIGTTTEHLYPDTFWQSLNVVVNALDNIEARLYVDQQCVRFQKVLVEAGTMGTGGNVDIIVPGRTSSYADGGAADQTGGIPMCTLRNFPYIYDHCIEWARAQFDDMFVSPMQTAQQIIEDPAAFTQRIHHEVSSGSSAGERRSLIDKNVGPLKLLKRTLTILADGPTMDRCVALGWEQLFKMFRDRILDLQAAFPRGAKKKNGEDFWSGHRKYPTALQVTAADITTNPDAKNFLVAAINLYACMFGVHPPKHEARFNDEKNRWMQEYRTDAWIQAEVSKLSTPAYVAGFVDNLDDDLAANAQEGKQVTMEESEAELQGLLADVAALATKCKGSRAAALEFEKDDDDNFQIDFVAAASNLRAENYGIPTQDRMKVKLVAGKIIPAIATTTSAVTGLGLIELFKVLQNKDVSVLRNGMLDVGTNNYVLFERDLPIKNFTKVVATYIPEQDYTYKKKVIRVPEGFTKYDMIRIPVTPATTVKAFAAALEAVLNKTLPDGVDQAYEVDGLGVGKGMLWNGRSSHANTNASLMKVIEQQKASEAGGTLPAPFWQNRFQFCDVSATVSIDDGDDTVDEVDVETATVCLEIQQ
- procedureSummary: Leishmania donovani Ubiquitin Activating Enzyme (LdE1)
- Assay type: functional
- Parameters: scale not given: direction of the effect not stated beside the values
- condition: 30 µM
Measured potencies and affinities stand elsewhere.
In this section, each of the compounds is paired with its reported Percent Effect.
Please answer in the form of a number followed by its unit of measurement.

Worked set:
COc1ccc(C(C)NC(=O)Cn2ccc(=O)n(C)c2=O)cc1OC (stereo unspecified)
7.79%
COc1ccc(C)cc1CN1CCCC1Cn1nc(C)nc1C (stereo unspecified)
-3.8%
Cc1cn2c(n1)CCC(NC(=O)c1cc(Br)cn1C)C2 (stereo unspecified)
0%
Fc1ccc(-c2n[nH]cc2-c2ccnc(NCCN3CCCC3)n2)cc1
8%
CCc1nccn1C1CCCN(C(=O)Cc2n[nH]c3ccccc23)C1 (stereo unspecified)
3.8%
Cc1cnc(CN(C)C2CCN(CCc3cnn(C)c3)C2)o1 (stereo unspecified)
0%
Cc1nc(C2CCCN(C(=O)COCc3ccccc3Cl)C2)no1 (stereo unspecified)
-8%
COCC(=O)N1CC[C@@H](O)[C@@H]1Cc1ccccc1
3.9%
Cn1cc(-c2nc(CN3CCc4c(ncn4C4CC4)C3)cs2)cn1
-2.6%
CC(C)CN1CCC2(CCN(C(=O)c3ccc(F)cc3)CC2)C1=O
19.5%

QUERY: Return reported Percent Effect; argument: O=C(Cc1csc(-c2ccc(Cl)cc2)n1)NC(C(=O)O)c1ccccc1 (stereo unspecified)
RESULT: -1.33%
